- EXPERIMENTAL_DETAILS: Inhibition of amyloid beta (1 to 40) self-mediated aggregation at 10 uM after 72 hrs by thioflavin T based fluorometric assay relative to control
inhibition values for the molecules below.

>  <SMILES_REPR>
O=C(CC[n+]1ccccc1)Nc1ccc(/C=C2\CCn3c2nc2cc(Cl)ccc2c3=O)cc1

>  <UNIT_DESCRIPTOR>
%

>  <inhibition>
49

$$$$
>  <SMILES_REPR>
COc1cc(/C=C/C(=O)CC(=O)/C=C/c2ccc(O)c(OC)c2)ccc1O

>  <UNIT_DESCRIPTOR>
%

>  <inhibition>
48.8

$$$$
>  <SMILES_REPR>
O=C(CCN1CCCCC1)Nc1ccc(/C=C2\CCn3c2nc2cc(Cl)ccc2c3=O)cc1

>  <UNIT_DESCRIPTOR>
%

>  <inhibition>
49.8

$$$$
>  <SMILES_REPR>
CN(C)CCCNC(=O)c1ccc(/C=C2\CCCn3c2nc2cc(Cl)ccc2c3=O)cc1

>  <UNIT_DESCRIPTOR>
%

>  <inhibition>
49.8

$$$$

----------
pIC50: −log10 of the molar value.
Observed pIC50 values for Cholinesterase (Equus caballus, UniProt P81908) are listed in what follows.
PROPERTY_NAME: pIC50

>  <SMILES_REPR>
O=C(NCCN1CCCC1)c1ccc(/C=C2\CCn3c2nc2cc(Cl)ccc2c3=O)cc1

>  <LT_GT_EQ>
=

>  <RECORDED_RESULT>
4.96

$$$$
>  <SMILES_REPR>
CN(C)CCNC(=O)c1ccc(/C=C2\CCn3c2nc2cc(Cl)ccc2c3=O)cc1

>  <LT_GT_EQ>
<

>  <RECORDED_RESULT>
4.70

$$$$
>  <SMILES_REPR>
CN(C)CCCNC(=O)c1ccc(/C=C2\CCn3c2nc2cc(Cl)ccc2c3=O)cc1

>  <LT_GT_EQ>
=

>  <RECORDED_RESULT>
5.29

$$$$
>  <SMILES_REPR>
O=C(CCN1CCCC1)Nc1ccc(/C=C2\CCCn3c2nc2cc(Cl)ccc2c3=O)cc1

>  <LT_GT_EQ>
=

>  <RECORDED_RESULT>
5.19

$$$$
>  <SMILES_REPR>
O=C(NCCCN1CCCC1)c1ccc(/C=C2\CCn3c2nc2cc(Cl)ccc2c3=O)cc1

>  <LT_GT_EQ>
=

>  <RECORDED_RESULT>
6.21

$$$$
>  <SMILES_REPR>
O=C(CCN1CCCCC1)Nc1ccc(/C=C2\CCn3c2nc2cc(Cl)ccc2c3=O)cc1

>  <LT_GT_EQ>
=

>  <RECORDED_RESULT>
5.54

$$$$
>  <SMILES_REPR>
O=C(CCN1CCCC1)Nc1ccc(/C=C2\CCn3c2nc2cc(Cl)ccc2c3=O)cc1

>  <LT_GT_EQ>
=

>  <RECORDED_RESULT>
5.42

$$$$
>  <SMILES_REPR>
O=C(CCN1CCCCC1)Nc1ccc(/C=C2\CCCn3c2nc2cc(Cl)ccc2c3=O)cc1

>  <LT_GT_EQ>
=

>  <RECORDED_RESULT>
5.22

$$$$
>  <SMILES_REPR>
O=C(CC[n+]1ccccc1)Nc1ccc(/C=C2\CCn3c2nc2cc(Cl)ccc2c3=O)cc1

>  <LT_GT_EQ>
=

>  <RECORDED_RESULT>
5.77

$$$$
>  <SMILES_REPR>
CCN(CC)CCC(=O)Nc1ccc(/C=C2\CCn3c2nc2cc(Cl)ccc2c3=O)cc1

>  <LT_GT_EQ>
=

>  <RECORDED_RESULT>
5.19

$$$$
>  <SMILES_REPR>
O=C(CC[n+]1ccccc1)Nc1ccc(/C=C2\CCCn3c2nc2cc(Cl)ccc2c3=O)cc1

>  <LT_GT_EQ>
=

>  <RECORDED_RESULT>
5.47

$$$$
>  <SMILES_REPR>
O=C(NCCCN1CCCC1)c1ccc(/C=C2\CCCn3c2nc2cc(Cl)ccc2c3=O)cc1

>  <LT_GT_EQ>
=

>  <RECORDED_RESULT>
6.30

$$$$

// provenance: ChEMBL document CHEMBL2010656
